Recorded AC50, one value per entry.
Target: Scavenger receptor class B member 1 (Mus musculus)
Experiment: Alexa488-HDL binding change at mSR-BI cells – ldlA[mSR-BI] cells, powder samples, orthogonal assay for SR-BI HDL uptake inhibitor project, dose response (AID 588777)
Conditions: Alexa488-HDL binding fluorescence, 3 h

compound | AC50
C[C@@H]1CN([C@H](C)CO)C(=O)c2cc(NC(=O)Cc3cn(C)c4ccccc34)ccc2O[C@@H]1CN(C)S(=O)(=O)c1ccc(F)cc1 | 21.5 µM
CCc1cc2cc3c(cc2nc1SCC(=O)OC(C)C)OCO3 | 1.48 µM
CC(OC(=O)c1cccc(NS(C)(=O)=O)c1)C(=O)Nc1ccc(N2CCOCC2)cc1 (centres undefined) | 4.47 µM

# ---- query compound ----
Please state recorded AC50 (tested on Scavenger receptor class B member 1 (Mus musculus)) of Cc1ccc(-c2nnc(N3CCC(C)CC3)c3ccccc23)cc1C
5.54 µM

* * *

Recorded AC50, one value per entry.
Molecular target: Scavenger receptor class B member 1 (Mus musculus) (UniProt Q61009)
Sequence (Q61009 whole entry, looked up): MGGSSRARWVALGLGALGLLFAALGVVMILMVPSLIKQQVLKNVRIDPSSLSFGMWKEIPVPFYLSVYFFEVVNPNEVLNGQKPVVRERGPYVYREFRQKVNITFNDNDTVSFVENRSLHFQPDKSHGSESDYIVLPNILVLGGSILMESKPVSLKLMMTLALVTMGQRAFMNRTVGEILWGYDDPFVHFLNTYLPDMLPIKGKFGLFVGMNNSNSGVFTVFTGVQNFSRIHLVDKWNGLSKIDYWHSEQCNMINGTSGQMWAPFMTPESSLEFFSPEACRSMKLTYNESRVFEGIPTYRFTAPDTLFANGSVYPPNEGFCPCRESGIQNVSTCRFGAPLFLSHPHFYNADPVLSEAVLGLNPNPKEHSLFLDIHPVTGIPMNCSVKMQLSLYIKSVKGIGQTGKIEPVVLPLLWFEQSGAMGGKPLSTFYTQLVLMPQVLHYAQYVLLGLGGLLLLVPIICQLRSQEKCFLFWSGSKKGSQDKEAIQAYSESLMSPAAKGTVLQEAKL
Test: Alexa488-HDL binding change at mSR-BI cells – ldlA[mSR-BI] cells, powder samples, orthogonal assay for SR-BI HDL uptake inhibitor project, dose response (AID 588777)
Details: Alexa488-HDL binding fluorescence, 3 h

The examples below pair each entry with its known result.
compound | recorded-measurement
C[C@@H]1CN([C@@H](C)CO)C(=O)c2cc(NC(=O)Cc3cn(C)c4ccccc34)ccc2O[C@@H]1CN(C)S(=O)(=O)c1ccc(F)cc1 | 22.8 µM
O=C(Nc1ccc(Cl)cc1C(=O)c1ccc(Cl)cc1)c1cc(Br)ccc1NS(=O)(=O)c1ccc(Cl)cc1 | 21.7 µM
Cc1ccccc1NC(=O)NCC1CCN(c2ccc(S(=O)(=O)N3CCOCC3)cc2)CC1 | 3.98 µM
CC(C)NC(=O)Nc1cccc2c1O[C@H](CN(C)Cc1ccc(Cl)c(Cl)c1)[C@@H](C)CN([C@@H](C)CO)C2=O | 9.96 µM
Cc1cc(C)c2c(c1)NC(c1cc3c(cc1Br)OCO3)C1CC=CC21 (stereo not drawn) | 8.25 µM

Given O=C(Nc1ccc(-c2nc3ccc(NC(=O)c4ccccc4[N+](=O)[O-])cc3[nH]2)cc1)c1ccccc1[N+](=O)[O-] , state its recorded AC50.
0.0549 µM

Given CCOC(=O)Nc1cccc(NC(=O)c2cc(OC)cc(OC)c2)c1 , state its recorded AC50.
2.27 µM

Given C[C@@H]1CN([C@H](C)CO)C(=O)c2cc(NC(=O)Cc3cn(C)c4ccccc34)ccc2O[C@H]1CN(C)S(=O)(=O)c1ccccc1 , state its recorded AC50.
8.36 µM

* * *

Biological target: Scavenger receptor class B member 1 (Mus musculus) (UniProt Q61009)
Assay: Alexa488-HDL binding change at mSR-BI cells – ldlA[mSR-BI] cells, powder samples, orthogonal assay for SR-BI HDL uptake inhibitor project, dose response (AID 588777)
Conditions: Alexa488-HDL binding fluorescence, 3 h
Recorded AC50, one value per entry.

The examples below pair each entry with its known result.
compound | test-system | AC50
C[C@@H]1CN([C@@H](C)CO)C(=O)c2cc(NC(=O)Cc3cn(C)c4ccccc34)ccc2O[C@H]1CN(C)S(=O)(=O)c1ccc(F)cc1 | Scavenger receptor class B member 1 (Mus musculus) (UniProt Q61009) | 10.2 µM
C[C@H]1CN([C@@H](C)CO)C(=O)c2cccc(NC(=O)Nc3ccccc3)c2O[C@@H]1CN(C)Cc1ccccc1 | Scavenger receptor class B member 1 (Mus musculus) (UniProt Q61009) | 13.8 µM
O=C(Nc1ccc(-c2nc3cc(NC(=O)c4ccccc4Cl)ccc3o2)cc1)c1ccccc1Cl | Scavenger receptor class B member 1 (Mus musculus) (UniProt Q61009) | 0.0819 µM
Cc1cc(C)n(CC(=O)NC2CCCc3c2cnn3-c2ccc(C)c(C)c2)n1 (configuration not stated) | Scavenger receptor class B member 1 (Mus musculus) (UniProt Q61009) | 0.0494 µM
C[C@H]1CN([C@@H](C)CO)C(=O)c2cccc(NC(=O)Nc3ccccc3)c2O[C@@H]1CN(C)Cc1ccc(C(F)(F)F)cc1 | Scavenger receptor class B member 1 (Mus musculus) (UniProt Q61009) | 19.4 µM
C[C@H](CO)N1C[C@H](C)[C@H](CN(C)S(=O)(=O)c2ccc(F)cc2)Oc2ccc(NC(=O)Cc3cn(C)c4ccccc34)cc2C1=O | Scavenger receptor class B member 1 (Mus musculus) (UniProt Q61009) | 30.9 µM
Nc1ccc(C(=O)Nc2ccc(-c3nc4ccc(NC(=O)c5ccc(N)cc5)cc4[nH]3)cc2)cc1 | Scavenger receptor class B member 1 (Mus musculus) (UniProt Q61009) | 4.55 µM
C[C@@H]1CN([C@H](C)CO)C(=O)c2cc(NC(=O)Cc3cn(C)c4ccccc34)ccc2O[C@H]1CN(C)S(=O)(=O)c1ccc(Cl)cc1 | Scavenger receptor class B member 1 (Mus musculus) (UniProt Q61009) | 0.168 µM
CCOc1ccc(NC(=O)CN2CCN(CC(=O)Nc3cc(OC)cc(OC)c3)CC2)cc1 | Scavenger receptor class B member 1 (Mus musculus) (UniProt Q61009) | 0.128 µM
Cc1cc(C(=O)C(C)OC(=O)C2=NNC(=O)CC2)c(C)n1-c1ccc(OC(F)F)cc1 (configuration not stated) | Scavenger receptor class B member 1 (Mus musculus) (UniProt Q61009) | 7.45 µM

# ---- query compound ----
Given C[C@@H]1CN([C@H](C)CO)C(=O)c2cc(NC(=O)Cc3cn(C)c4ccccc34)ccc2O[C@H]1CN(C)S(=O)(=O)c1ccc(F)cc1 , state its recorded AC50.
2.06 µM
